src = patent US20100166764A1

# experimentalSystem: T1, mature myostatin (human, murine, rat, chicken, turkey, …, UniProt O08689 268-376 (mouse entry))
# T1 construct: also called growth differentiation factor-8; GDF-8
# T1 sequence: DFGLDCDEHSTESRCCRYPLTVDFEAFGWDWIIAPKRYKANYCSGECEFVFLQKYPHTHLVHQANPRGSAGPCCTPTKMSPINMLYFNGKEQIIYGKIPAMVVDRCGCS
# assayName: ELISA, myostatin coated, periprep Fab titrated, anti-human-kappa-AP

| binder | binding result |
| --- | --- |
| C12 Fab with the Asn residue in CDRL3 replaced with aspartic acid (Fab, V domains shown, Periprep Fab) VH: QLQLQESGPGLVKPSETLSLTCTVSGFSLRKVGSSVSWIRQPPGKGLEWIGHIYWDDDKRLNPSLRNRVTISVDTSKNQFSLKLSSVTAADTAVYYCARRAITTVIGGGTFDLWGQGTLVTVSS VL: DIQMTQSPSSLSASVGDRVTITCSASSSISYMHWYQQKPGKAPKLLIYDTSKLARGVPSRFSGSGSGTDFTLTISSLQPEDFATYYCQQWYLDPLTFGGGTKVEIKR | binds |
| C12 Fab with the Asn residue in CDRL3 replaced with methionine (Fab, V domains shown, Periprep Fab) VH: QLQLQESGPGLVKPSETLSLTCTVSGFSLRKVGSSVSWIRQPPGKGLEWIGHIYWDDDKRLNPSLRNRVTISVDTSKNQFSLKLSSVTAADTAVYYCARRAITTVIGGGTFDLWGQGTLVTVSS VL: DIQMTQSPSSLSASVGDRVTITCSASSSISYMHWYQQKPGKAPKLLIYDTSKLARGVPSRFSGSGSGTDFTLTISSLQPEDFATYYCQQWYLMPLTFGGGTKVEIKR | binds |
